target: UniProt:P26663; assay: Assay for HCV RNA-dependent RNA polymerase activity (SPA, [3H]-GTP incorporation); assay type: biochemical; conditions: Δ21 Activity (IC50 μM), 50 nM NS5B (Δ21), class symbols
Sequence (P26663 2420-2989, stated change not applied): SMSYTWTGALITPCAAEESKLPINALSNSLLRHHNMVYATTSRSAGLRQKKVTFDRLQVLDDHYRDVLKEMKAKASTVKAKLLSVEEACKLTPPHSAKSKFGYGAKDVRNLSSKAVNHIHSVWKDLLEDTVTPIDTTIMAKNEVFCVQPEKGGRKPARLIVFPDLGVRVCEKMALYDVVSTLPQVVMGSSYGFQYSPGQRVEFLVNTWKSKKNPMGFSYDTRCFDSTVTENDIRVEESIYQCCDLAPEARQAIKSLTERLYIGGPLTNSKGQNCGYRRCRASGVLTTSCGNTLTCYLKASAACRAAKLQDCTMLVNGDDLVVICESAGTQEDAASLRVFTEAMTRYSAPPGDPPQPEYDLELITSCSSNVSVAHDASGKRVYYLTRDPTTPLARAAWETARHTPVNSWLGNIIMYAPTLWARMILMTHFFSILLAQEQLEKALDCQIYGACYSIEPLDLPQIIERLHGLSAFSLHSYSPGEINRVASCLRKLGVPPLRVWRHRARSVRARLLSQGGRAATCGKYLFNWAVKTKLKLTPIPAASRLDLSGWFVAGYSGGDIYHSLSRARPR
METRIC: IC50

// known answers, use as guide
CC(C)(O)c1cc(C(=O)N[C@H]2CCCC[C@@H]2OCc2ccccc2)n(CC(=O)N[C@H]2CCCC[C@@H]2OCc2ccccc2)n1
> 1 µM
CN(C)S(=O)(=O)Nc1cc(C(=O)N[C@H]2CCCC[C@@H]2OCc2ccccc2)n(CC(=O)N[C@H]2CCCC[C@@H]2OCc2ccccc2)n1
0.05 to 0.1 µM

The recorded IC50 for entry O=C(Cn1nc(NS(=O)(=O)c2ccc(F)cc2)cc1C(=O)N[C@H]1CCCC[C@@H]1OCc1ccccc1)N[C@H]1CCCC[C@@H]1OCc1ccccc1 equals 0.05 to 0.1 µM

For this compound ( CCOC(=O)c1cc(C(=O)N(C)[C@H]2CCCC[C@@H]2OCc2ccccc2)n(CC(=O)N(C)C2CCCC[C@@H]2OCc2ccccc2)n1 (stereo partly drawn) ), measured IC50 is > 1 µM

IC50 reported for this compound Cc1ccc(OCn2nc(C)cc2C)c(NC(=O)c2cc(C(=O)O)nn2CC(=O)N[C@H]2CCCC[C@@H]2OCc2ccccc2)c1 : > 1 µM

So for O=C(Cn1nc(C(=O)O)cc1C(=O)N[C@H]1CCCC[C@@H]1OCc1ccccc1)NC1CCC[C@@H]1Sc1ccccc1 (stereo partly drawn) , the logged IC50 turned out to be > 1 µM
